Tested on: 276233-004-R-J1-PDC KRAS spheroids with HUVEC/MSC, viability
Test: Anticancer human tumor 276233-004-R-J1-PDC patient-derived colon adenocarcinoma cell line growth inhibition [KRAS2]
Details: curve of first compound; second compound 0.1 µM
pIC50: −log10 of the molar value.
Listed here are compounds together with their documented pIC50.

compound	limit.operator	pIC50
CC(C)NCC(C(=O)N1CCN(c2ncnc3c2C(C)CC3O)CC1)c1ccc(Cl)cc1 (stereo unspecified) + COc1cc2nc(C)nc(NC(C)c3cc(N)cc(C(F)(F)F)c3)c2cc1OC1CCOC1	=	5.75
CC(=O)Nc1cccc(-n2c(=O)n(C3CC3)c(=O)c3c(Nc4ccc(I)cc4F)n(C)c(=O)c(C)c32)c1 + CC1OCC2(CCN(c3cnc(Sc4ccnc(N)c4Cl)c(N)n3)CC2)C1N	=	8.37
CC1COCCN1c1cc(-c2ccnn2C)c2ccnc(-c3ccn[nH]3)c2n1 (stereo unspecified) + COc1cc2nc(C)nc(NC(C)c3cc(N)cc(C(F)(F)F)c3)c2cc1OC1CCOC1	=	5.83
COC(=O)c1ccc2c(C(=Nc3ccc(N(C)C(=O)CN4CCN(C)CC4)cc3)c3ccccc3)c(O)[nH]c2c1 + COc1cc2nc(C)nc(NC(C)c3cc(N)cc(C(F)(F)F)c3)c2cc1OC1CCOC1	<	5.00
O=C(c1cc(Cc2n[nH]c(=O)c3ccccc23)ccc1F)N1CCN(C(=O)C2CC2)CC1 + C=CC(=O)N1CCN(c2nc(=O)n(-c3c(C)ccnc3C(C)C)c3nc(-c4c(O)cccc4F)c(F)cc23)C(C)C1	<	5.00
CC(C)n1nc(-c2ccc3oc(N)nc3c2)c2c(N)ncnc21 + CNCc1ccccc1-c1csc(C(C)Nc2nc(C)nc3cc(OC)c(OC)cc23)c1	=	7.37

###

Tested on: 276233-004-R-J1-PDC KRAS spheroids with HUVEC/MSC, viability
Assay: Anticancer human tumor 276233-004-R-J1-PDC cell line growth inhibition [KRAS2];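 further: cells exposed to agents for seven days before viability read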;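 on viability, T/C: 100% = DMSO vehicle control wells and lower values mean fewer viable cells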
Details: second compound 0.316 µM; first compound 0.0001 µM; stronger effect = lower value
// boundary case: viability, T/C equal to 80% maps to N; strictly smaller maps to Y

compound	qualitative.label
CC(=O)Nc1cccc(-n2c(=O)n(C3CC3)c(=O)c3c(Nc4ccc(I)cc4F)n(C)c(=O)c(C)c32)c1 + C=CC(=O)N1CCN(c2nc(=O)n(-c3c(C)ccnc3C(C)C)c3nc(-c4c(O)cccc4F)c(F)cc23)C(C)C1	N
CC(=O)Nc1cccc(-n2c(=O)n(C3CC3)c(=O)c3c(Nc4ccc(I)cc4F)n(C)c(=O)c(C)c32)c1 + COc1cc2nc(C)nc(NC(C)c3cc(N)cc(C(F)(F)F)c3)c2cc1OC1CCOC1	N
CC(=O)Nc1cccc(-n2c(=O)n(C3CC3)c(=O)c3c(Nc4ccc(I)cc4F)n(C)c(=O)c(C)c32)c1 + CNCc1ccccc1-c1csc(C(C)Nc2nc(C)nc3cc(OC)c(OC)cc23)c1	N
CC(=O)Nc1cccc(-n2c(=O)n(C3CC3)c(=O)c3c(Nc4ccc(I)cc4F)n(C)c(=O)c(C)c32)c1 + C=CC(=O)N1CCN(c2nc(OCC3CCCN3C)nc3c2CCN(c2cccc4cccc(C)c24)C3)CC1CC#N	Y
CC(=O)Nc1cccc(-n2c(=O)n(C3CC3)c(=O)c3c(Nc4ccc(I)cc4F)n(C)c(=O)c(C)c32)c1 + CC1OCC2(CCN(c3cnc(Sc4ccnc(N)c4Cl)c(N)n3)CC2)C1N	Y

###

Tested on: 276233-004-R-J1-PDC KRAS spheroids with HUVEC/MSC, viability
Test: Anticancer human tumor 276233-004-R-J1-PDC cell line growth inhibition [KRAS2];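 further: cells exposed to agents for seven days before viability read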;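 on viability, T/C: 100% = DMSO vehicle control wells and lower values mean fewer viable cells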
Details: second compound 0.0316 µM; first compound 3.16 µM; stronger effect = lower value
// boundary case: viability, T/C equal to 70% maps to Not fulfilled; strictly smaller maps to Fulfilled

compound	qualitative.label
CC1COCCN1c1cc(-c2ccnn2C)c2ccnc(-c3ccn[nH]3)c2n1 (configuration not stated) + C=CC(=O)N1CCN(c2nc(OCC3CCCN3C)nc3c2CCN(c2cccc4cccc(C)c24)C3)CC1CC#N	Fulfilled
COc1cc(Nc2ncc3c(n2)-c2ccc(Cl)cc2C(c2c(F)cccc2OC)=NC3)ccc1C(=O)O + C=CC(=O)N1CCN(c2nc(OCC3CCCN3C)nc3c2CCN(c2cccc4cccc(C)c24)C3)CC1CC#N	Not fulfilled
CC(C)NCC(C(=O)N1CCN(c2ncnc3c2C(C)CC3O)CC1)c1ccc(Cl)cc1 (configuration not stated) + C=CC(=O)N1CCN(c2nc(OCC3CCCN3C)nc3c2CCN(c2cccc4cccc(C)c24)C3)CC1CC#N	Fulfilled
Cn1nccc1Nc1nccc(-c2cc3c(s2)C(C)(C)N(CCN2CCOCC2)C3=O)n1 + C=CC(=O)N1CCN(c2nc(OCC3CCCN3C)nc3c2CCN(c2cccc4cccc(C)c24)C3)CC1CC#N	Fulfilled
COC(=O)c1ccc2c(C(=Nc3ccc(N(C)C(=O)CN4CCN(C)CC4)cc3)c3ccccc3)c(O)[nH]c2c1 + C=CC(=O)N1CCN(c2nc(OCC3CCCN3C)nc3c2CCN(c2cccc4cccc(C)c24)C3)CC1CC#N	Not fulfilled

###

Listed here are compounds together with their documented viability, T/C.
Test system: 276233-004-R-J1-PDC KRAS spheroids with HUVEC/MSC, viability
Experiment: Anticancer human tumor 276233-004-R-J1-PDC cell line growth inhibition [KRAS2];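 further: cells exposed to agents for seven days before viability read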;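 on viability, T/C: 100% = DMSO vehicle control wells and lower values mean fewer viable cells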
Settings: compound 3.16 µM; stronger effect = lower value
observed.property: viability, T/C

compound	observed.property	reading
CC(=O)OC12COC1CC(O)C1(C)C(=O)C(O)C3=C(C)C(OC(=O)C(O)C(NC(=O)OC(C)(C)C)c4ccccc4)CC(O)(C(OC(=O)c4ccccc4)C21)C3(C)C (stereo not given)	viability, T/C	92.1% [middle of 5 runs]
Cn1nccc1Nc1nccc(-c2cc3c(s2)C(C)(C)N(CCN2CCOCC2)C3=O)n1	viability, T/C	54.2% [middle of 5 runs]
COc1cc(Nc2ncc3c(n2)-c2ccc(Cl)cc2C(c2c(F)cccc2OC)=NC3)ccc1C(=O)O	viability, T/C	95.5% [middle of 5 runs]
COc1cc2nccc(Oc3ccc(NC(=O)C4(C(=O)Nc5ccc(F)cc5)CC4)cc3)c2cc1OC	viability, T/C	93.1% [middle of 5 runs]
CCNC(=O)CC1N=C(c2ccc(Cl)cc2)c2cc(OC)ccc2-n2c(C)nnc21 (stereo not given)	viability, T/C	71.3% [middle of 5 runs]

###

Listed here are molecules together with their documented viability, T/C.
Test system: 276233-004-R-J1-PDC KRAS spheroids with HUVEC/MSC, viability
Experiment: Anticancer human tumor 276233-004-R-J1-PDC cell line growth inhibition [KRAS2];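 further: cells exposed to agents for seven days before viability read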;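 on viability, T/C: 100% = DMSO vehicle control wells and lower values mean fewer viable cells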
Conditions: second compound 0.316 µM; first compound 3.16 µM; stronger effect = lower value
observed.property: viability, T/C (%)

molecule	target.desc	reading
COc1cc(Nc2ncc3c(n2)-c2ccc(Cl)cc2C(c2c(F)cccc2OC)=NC3)ccc1C(=O)O + COc1cc2nc(C)nc(NC(C)c3cc(N)cc(C(F)(F)F)c3)c2cc1OC1CCOC1	276233-004-R-J1-PDC KRAS spheroids with HUVEC/MSC, viability	67.2
CC1COCCN1c1cc(-c2ccnn2C)c2ccnc(-c3ccn[nH]3)c2n1 (configuration not stated) + CC1OCC2(CCN(c3cnc(Sc4ccnc(N)c4Cl)c(N)n3)CC2)C1N	276233-004-R-J1-PDC KRAS spheroids with HUVEC/MSC, viability	45
CC(C)NCC(C(=O)N1CCN(c2ncnc3c2C(C)CC3O)CC1)c1ccc(Cl)cc1 (configuration not stated) + CNCc1ccccc1-c1csc(C(C)Nc2nc(C)nc3cc(OC)c(OC)cc23)c1	276233-004-R-J1-PDC KRAS spheroids with HUVEC/MSC, viability	70.4
CC1COCCN1c1cc(-c2ccnn2C)c2ccnc(-c3ccn[nH]3)c2n1 (configuration not stated) + C=CC(=O)N1CCN(c2nc(OCC3CCCN3C)nc3c2CCN(c2cccc4cccc(C)c24)C3)CC1CC#N	276233-004-R-J1-PDC KRAS spheroids with HUVEC/MSC, viability	55.6
O=C(c1cc(Cc2n[nH]c(=O)c3ccccc23)ccc1F)N1CCN(C(=O)C2CC2)CC1 + CNCc1ccccc1-c1csc(C(C)Nc2nc(C)nc3cc(OC)c(OC)cc23)c1	276233-004-R-J1-PDC KRAS spheroids with HUVEC/MSC, viability	84
COc1cc2nccc(Oc3ccc(NC(=O)C4(C(=O)Nc5ccc(F)cc5)CC4)cc3)c2cc1OC + C=CC(=O)N1CCN(c2nc(OCC3CCCN3C)nc3c2CCN(c2cccc4cccc(C)c24)C3)CC1CC#N	276233-004-R-J1-PDC KRAS spheroids with HUVEC/MSC, viability	84.7
Cn1nccc1Nc1nccc(-c2cc3c(s2)C(C)(C)N(CCN2CCOCC2)C3=O)n1 + COc1cc2nc(C)nc(NC(C)c3cc(N)cc(C(F)(F)F)c3)c2cc1OC1CCOC1	276233-004-R-J1-PDC KRAS spheroids with HUVEC/MSC, viability	42.9
CC1(C)CCC(CN2CCN(c3ccc(C(=O)NS(=O)(=O)c4ccc(NCC5CCOCC5)c([N+](=O)[O-])c4)c(Oc4cnc5[nH]ccc5c4)c3)CC2)=C(c2ccc(Cl)cc2)C1 + C=CC(=O)N1CCN(c2nc(=O)n(-c3c(C)ccnc3C(C)C)c3nc(-c4c(O)cccc4F)c(F)cc23)C(C)C1	276233-004-R-J1-PDC KRAS spheroids with HUVEC/MSC, viability	92.2
O=C(c1cc(Cc2n[nH]c(=O)c3ccccc23)ccc1F)N1CCN(C(=O)C2CC2)CC1 + CC1OCC2(CCN(c3cnc(Sc4ccnc(N)c4Cl)c(N)n3)CC2)C1N	276233-004-R-J1-PDC KRAS spheroids with HUVEC/MSC, viability	64.9
COC(=O)c1ccc2c(C(=Nc3ccc(N(C)C(=O)CN4CCN(C)CC4)cc3)c3ccccc3)c(O)[nH]c2c1 + C=CC(=O)N1CCN(c2nc(=O)n(-c3c(C)ccnc3C(C)C)c3nc(-c4c(O)cccc4F)c(F)cc23)C(C)C1	276233-004-R-J1-PDC KRAS spheroids with HUVEC/MSC, viability	91.1
COc1cc(Nc2ncc3c(n2)-c2ccc(Cl)cc2C(c2c(F)cccc2OC)=NC3)ccc1C(=O)O + C=CC(=O)N1CCN(c2nc(OCC3CCCN3C)nc3c2CCN(c2cccc4cccc(C)c24)C3)CC1CC#N	276233-004-R-J1-PDC KRAS spheroids with HUVEC/MSC, viability	83.1
COc1cc2nccc(Oc3ccc(NC(=O)C4(C(=O)Nc5ccc(F)cc5)CC4)cc3)c2cc1OC + CNCc1ccccc1-c1csc(C(C)Nc2nc(C)nc3cc(OC)c(OC)cc23)c1	276233-004-R-J1-PDC KRAS spheroids with HUVEC/MSC, viability	83.2
CC(=O)OC12COC1CC(O)C1(C)C(=O)C(O)C3=C(C)C(OC(=O)C(O)C(NC(=O)OC(C)(C)C)c4ccccc4)CC(O)(C(OC(=O)c4ccccc4)C21)C3(C)C (configuration not stated) + COc1cc2nc(C)nc(NC(C)c3cc(N)cc(C(F)(F)F)c3)c2cc1OC1CCOC1	276233-004-R-J1-PDC KRAS spheroids with HUVEC/MSC, viability	71.7
COc1cc(Nc2ncc3c(n2)-c2ccc(Cl)cc2C(c2c(F)cccc2OC)=NC3)ccc1C(=O)O + CC1OCC2(CCN(c3cnc(Sc4ccnc(N)c4Cl)c(N)n3)CC2)C1N	276233-004-R-J1-PDC KRAS spheroids with HUVEC/MSC, viability	67.1
CC1COCCN1c1cc(-c2ccnn2C)c2ccnc(-c3ccn[nH]3)c2n1 (configuration not stated) + CNCc1ccccc1-c1csc(C(C)Nc2nc(C)nc3cc(OC)c(OC)cc23)c1	276233-004-R-J1-PDC KRAS spheroids with HUVEC/MSC, viability	59.1
CCNC(=O)CC1N=C(c2ccc(Cl)cc2)c2cc(OC)ccc2-n2c(C)nnc21 (configuration not stated) + C=CC(=O)N1CCN(c2nc(OCC3CCCN3C)nc3c2CCN(c2cccc4cccc(C)c24)C3)CC1CC#N	276233-004-R-J1-PDC KRAS spheroids with HUVEC/MSC, viability	65.4
CCNC(=O)CC1N=C(c2ccc(Cl)cc2)c2cc(OC)ccc2-n2c(C)nnc21 (configuration not stated) + CC1OCC2(CCN(c3cnc(Sc4ccnc(N)c4Cl)c(N)n3)CC2)C1N	276233-004-R-J1-PDC KRAS spheroids with HUVEC/MSC, viability	52.5
CC(C)NCC(C(=O)N1CCN(c2ncnc3c2C(C)CC3O)CC1)c1ccc(Cl)cc1 (configuration not stated) + COc1cc2nc(C)nc(NC(C)c3cc(N)cc(C(F)(F)F)c3)c2cc1OC1CCOC1	276233-004-R-J1-PDC KRAS spheroids with HUVEC/MSC, viability	32.6
CC(=O)OC12COC1CC(O)C1(C)C(=O)C(O)C3=C(C)C(OC(=O)C(O)C(NC(=O)OC(C)(C)C)c4ccccc4)CC(O)(C(OC(=O)c4ccccc4)C21)C3(C)C (configuration not stated) + C=CC(=O)N1CCN(c2nc(=O)n(-c3c(C)ccnc3C(C)C)c3nc(-c4c(O)cccc4F)c(F)cc23)C(C)C1	276233-004-R-J1-PDC KRAS spheroids with HUVEC/MSC, viability	89.5
O=C(c1cc(Cc2n[nH]c(=O)c3ccccc23)ccc1F)N1CCN(C(=O)C2CC2)CC1 + C=CC(=O)N1CCN(c2nc(OCC3CCCN3C)nc3c2CCN(c2cccc4cccc(C)c24)C3)CC1CC#N	276233-004-R-J1-PDC KRAS spheroids with HUVEC/MSC, viability	83.4
CC1COCCN1c1cc(-c2ccnn2C)c2ccnc(-c3ccn[nH]3)c2n1 (configuration not stated) + COc1cc2nc(C)nc(NC(C)c3cc(N)cc(C(F)(F)F)c3)c2cc1OC1CCOC1	276233-004-R-J1-PDC KRAS spheroids with HUVEC/MSC, viability	48.6
COC(=O)c1ccc2c(C(=Nc3ccc(N(C)C(=O)CN4CCN(C)CC4)cc3)c3ccccc3)c(O)[nH]c2c1 + C=CC(=O)N1CCN(c2nc(OCC3CCCN3C)nc3c2CCN(c2cccc4cccc(C)c24)C3)CC1CC#N	276233-004-R-J1-PDC KRAS spheroids with HUVEC/MSC, viability	78.6
